Where these numbers come from: paper PMC4377892

melting point reference

Look over these answered cases.
Query string: Which melting point is listed for "COc1cc2ccc(=O)oc2c2c1OCO2" ?
Result string: 220 to 221 °C

Query string: Subsequent entry: "O=c1ccc2cc3c(cc2o1)OCO3"
Result string: 230 to 231 °C

Query string: Subsequent entry: COc1cc2ccc(=O)oc2c2c1OC(OC)O2 (stereo not shown)
Result string: 202 to 203 °C

New cases:
Query string: Which melting point is listed for COC1Oc2cc3ccc(=O)oc3cc2O1 (stereo not shown) ?
Result string: 205 to 206 °C

----------
Target: CYP2C9 (Homo sapiens, UniProt P11712)
Sequence (P11712 whole entry): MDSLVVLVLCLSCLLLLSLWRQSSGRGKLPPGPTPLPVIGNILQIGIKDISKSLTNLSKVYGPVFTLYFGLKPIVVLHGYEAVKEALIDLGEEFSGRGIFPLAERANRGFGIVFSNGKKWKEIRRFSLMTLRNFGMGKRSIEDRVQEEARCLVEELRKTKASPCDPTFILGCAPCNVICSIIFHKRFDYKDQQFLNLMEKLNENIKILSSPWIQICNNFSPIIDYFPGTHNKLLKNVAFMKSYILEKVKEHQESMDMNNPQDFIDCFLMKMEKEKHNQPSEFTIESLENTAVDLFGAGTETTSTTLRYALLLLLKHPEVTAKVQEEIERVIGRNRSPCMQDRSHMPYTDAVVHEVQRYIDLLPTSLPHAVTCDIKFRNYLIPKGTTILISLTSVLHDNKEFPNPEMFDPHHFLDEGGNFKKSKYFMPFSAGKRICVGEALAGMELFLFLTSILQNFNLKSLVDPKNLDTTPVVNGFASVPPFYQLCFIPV
Test: Cytochrome P450 enzyme activity assay in vitro (CYP2C9 screening kit)
Conditions: recombinant CYP2C9 BACULOSOMES, probe Vivid BOMCC
Test readout: inhibition at 30 min, 10 µM
Returns: string containing the number followed by the unit.

Query string: Which inhibition at 30 min, 10 µM is listed for "COc1cc2oc(=O)ccc2c(OC)c1OC" ?
Result string: 0%
